D10 (μm) overview
# experimentalProtocol: Particle size distribution (Malvern Mastersizer), Example 16
# Format: physicochemical
# conditionNotes: crystalline amisulpride used in the tablet formulations; Mastersizer 2000
Record the result as number plus unit.

compound="CCN1CCC[C@@H]1CNC(=O)c1cc(S(=O)(=O)CC)c(N)cc1OC [Form A small PSD]" attributemeasured="D10 (μm)" experimentalresult="4.7 μm"

// D10 (μm) value for CCN1CCC[C@@H]1CNC(=O)c1cc(S(=O)(=O)CC)c(N)cc1OC [Form A large PSD] : 12.8 μm

// D10 (μm) value for CCN1CCC[C@H]1CNC(=O)c1cc(S(=O)(=O)CC)c(N)cc1OC [Form A′ small PSD] : 5.1 μm

// D10 (μm) value for CCN1CCC[C@H]1CNC(=O)c1cc(S(=O)(=O)CC)c(N)cc1OC [Form A′ large PSD] : 31.6 μm

====

# experimentalProtocol: Particle size distribution (Malvern Mastersizer), Example 16
# Type: physicochemical
# conditionNotes: crystalline amisulpride used in the tablet formulations; Mastersizer 2000
D90 (μm) overview
Kindly answer with a numeric value in μm, unit omitted.

For orientation, consider the following solved cases.
compound="CCN1CCC[C@@H]1CNC(=O)c1cc(S(=O)(=O)CC)c(N)cc1OC [Form A small PSD]" unit=μm experimentalresult=90.4
compound="CCN1CCC[C@H]1CNC(=O)c1cc(S(=O)(=O)CC)c(N)cc1OC [Form A′ large PSD]" unit=μm experimentalresult=425.4
compound="CCN1CCC[C@@H]1CNC(=O)c1cc(S(=O)(=O)CC)c(N)cc1OC [Form A large PSD]" unit=μm experimentalresult=441.4

Read the next record carefully.
// D90 (μm) value for CCN1CCC[C@H]1CNC(=O)c1cc(S(=O)(=O)CC)c(N)cc1OC [Form A′ small PSD] : 80.1

====

# experimentalProtocol: Particle size distribution (Malvern Mastersizer), Example 16
# Format: physicochemical
# conditionNotes: crystalline amisulpride used in the tablet formulations; Mastersizer 2000
# Experimental: The particle size distribution (PSD) of crystalline products prepared by the foregoing examples were examined. […] The PSD of the crystalline amisulpride used in the various formulations are provided below. […] The PSDs were measured using a Mastersizer 2000 particle size analyzer instrument as described above.
attributeMeasured: D50 (μm)
Kindly answer with a numeric value in μm, unit omitted.

// D50 (μm) value for CCN1CCC[C@@H]1CNC(=O)c1cc(S(=O)(=O)CC)c(N)cc1OC [Form A large PSD] : 94.9

// D50 (μm) value for CCN1CCC[C@@H]1CNC(=O)c1cc(S(=O)(=O)CC)c(N)cc1OC [Form A small PSD] : 18.2

// D50 (μm) value for CCN1CCC[C@H]1CNC(=O)c1cc(S(=O)(=O)CC)c(N)cc1OC [Form A′ large PSD] : 93.1

// D50 (μm) value for CCN1CCC[C@H]1CNC(=O)c1cc(S(=O)(=O)CC)c(N)cc1OC [Form A′ small PSD] : 18.3
